System: DU-145
Assay: Growth inhibition of human DU145 cells at 10 uM after 48 hrs by SRB assay relative to control
Assay type: functional
Conditions: DU-145, 48 h, read-out: GI
Please respond with reported inhibition of growth at 10 µM for every item in the list.
One number for each entry, in %.

Examples with answers:
COc1cccc(C(=O)Nc2cccc(-c3cc(=O)c4c(O)c(OC)c(OC)cc4o3)c2)c1    36.7
COc1cc(NC(=O)c2cccc(-c3cc(=O)c4c(OC)c(OC)c(OC)cc4o3)c2)cc(OC)c1OC    45.7

For every record below, what is its inhibition of growth at 10 µM?
1. COc1cc2oc(-c3cccc(NC(=O)c4ccc5c(c4)OCO5)c3)cc(=O)c2c(OC)c1OC
2. COc1cc(NC(=O)c2cccc(-c3cc(=O)c4c(O)c(OC)c(OC)cc4o3)c2)cc(OC)c1OC

Marked response:
1: 47.1; 2: 42.8

For every record below, what is its inhibition of growth at 10 µM?
1. COc1cccc(C(=O)Nc2cccc(-c3cc(=O)c4c(OC)c(OC)c(OC)cc4o3)c2)c1
2. COc1cc2oc(-c3cccc(C(=O)Nc4ccc5c(c4)OCO5)c3)cc(=O)c2c(O)c1OC
3. COc1ccccc1C(=O)Nc1cccc(-c2cc(=O)c3c(OC)c(OC)c(OC)cc3o2)c1

Marked response:
32.6
19.6
55.1

For every record below, what is its inhibition of growth at 10 µM?
1. COc1ccccc1C(=O)Nc1cccc(-c2cc(=O)c3c(O)c(OC)c(OC)cc3o2)c1
2. Cc1ccc(NC(=O)c2ccc(CN3CCN(C)CC3)cc2)cc1Nc1nccc(-c2cccnc2)n1

Marked response:
-2.87
14.4

----------
Please respond with reported inhibition of growth at 10 µM for every item in the list.
Tested on: OVCAR-5
Experiment: Growth inhibition of human OVCAR5 cells at 10 uM after 48 hrs by SRB assay relative to control
Type: functional
Settings: OVCAR-5, 48 h, read-out: GI
Numbers only, in %.

Examples with answers:
COc1cc(NC(=O)c2cccc(-c3cc(=O)c4c(O)c(OC)c(OC)cc4o3)c2)cc(OC)c1OC    22.6
COc1ccccc1C(=O)Nc1cccc(-c2cc(=O)c3c(O)c(OC)c(OC)cc3o2)c1    5.27
COc1cccc(C(=O)Nc2cccc(-c3cc(=O)c4c(OC)c(OC)c(OC)cc4o3)c2)c1    10.4
COc1cc2oc(-c3cccc(NC(=O)c4ccc5c(c4)OCO5)c3)cc(=O)c2c(OC)c1OC    6.14
COc1ccc(C(=O)Nc2cccc(-c3cc(=O)c4c(OC)c(OC)c(OC)cc4o3)c2)cc1    4.43

For every record below, what is its inhibition of growth at 10 µM?
1. COc1cc2oc(-c3cccc(C(=O)Nc4ccc5c(c4)OCO5)c3)cc(=O)c2c(OC)c1OC
2. COc1cc2oc(-c3cccc(C(=O)Nc4ccccc4)c3)cc(=O)c2c(OC)c1OC
3. COc1cc2oc(-c3cccc(C(=O)Nc4ccccc4)c3)cc(=O)c2c(O)c1OC

Marked response:
16.4
16.2
5.59

For every record below, what is its inhibition of growth at 10 µM?
1. COc1ccc(NC(=O)c2cccc(-c3cc(=O)c4c(O)c(OC)c(OC)cc4o3)c2)cc1
2. COc1ccc(NC(=O)c2cccc(-c3cc(=O)c4c(OC)c(OC)c(OC)cc4o3)c2)cc1
3. COc1cc2oc(-c3cccc(NC(=O)c4ccc5c(c4)OCO5)c3)cc(=O)c2c(O)c1OC

Marked response:
[2.51, 16.8, 13.7]

For every record below, what is its inhibition of growth at 10 µM?
1. COc1ccccc1C(=O)Nc1cccc(-c2cc(=O)c3c(OC)c(OC)c(OC)cc3o2)c1
2. COc1ccccc1NC(=O)c1cccc(-c2cc(=O)c3c(OC)c(OC)c(OC)cc3o2)c1

Marked response:
18.8
18.6

----------
Test system: PC-3
Assay: Growth inhibition of human PC3 cells at 10 uM after 48 hrs by SRB assay relative to control
Type: functional
Details: PC-3, 48 h, read-out: GI
Note: every record was labeled by where its inhibition of growth at 10 µM sits among L: < 30%; M: ≥ 30% and < 50%; H: ≥ 50%

COc1cc2oc(-c3cccc(NC(=O)c4ccccc4)c3)cc(=O)c2c(OC)c1OC    M
COc1cccc(NC(=O)c2cccc(-c3cc(=O)c4c(OC)c(OC)c(OC)cc4o3)c2)c1    M
COc1cc2oc(-c3cccc(C(=O)Nc4ccc5c(c4)OCO5)c3)cc(=O)c2c(OC)c1OC    L
COc1cccc(C(=O)Nc2cccc(-c3cc(=O)c4c(O)c(OC)c(OC)cc4o3)c2)c1    H
COc1ccc(C(=O)Nc2cccc(-c3cc(=O)c4c(OC)c(OC)c(OC)cc4o3)c2)cc1    H
COc1cc2oc(-c3cccc(C(=O)Nc4ccccc4)c3)cc(=O)c2c(O)c1OC    L
COc1ccccc1C(=O)Nc1cccc(-c2cc(=O)c3c(OC)c(OC)c(OC)cc3o2)c1    H
Cc1ccc(NC(=O)c2ccc(CN3CCN(C)CC3)cc2)cc1Nc1nccc(-c2cccnc2)n1    L

Exam item: Hello team, could you let me know which band the following molecule falls into: `COc1cc2oc(-c3cccc(NC(=O)c4ccc5c(c4)OCO5)c3)cc(=O)c2c(OC)c1OC`
Marked response: H

Exam item: Hello team, could you let me know which band the following molecule falls into: `COc1cc(NC(=O)c2cccc(-c3cc(=O)c4c(OC)c(OC)c(OC)cc4o3)c2)cc(OC)c1OC`
Marked response: M

Exam item: Hello team, could you let me know which band the following molecule falls into: `COc1cccc(NC(=O)c2cccc(-c3cc(=O)c4c(O)c(OC)c(OC)cc4o3)c2)c1`
Marked response: M

Exam item: Hello team, could you let me know which band the following molecule falls into: `COc1cc2oc(-c3cccc(C(=O)Nc4ccccc4)c3)cc(=O)c2c(OC)c1OC`
Marked response: L

Exam item: Hello team, could you let me know which band the following molecule falls into: `COc1ccc(NC(=O)c2cccc(-c3cc(=O)c4c(OC)c(OC)c(OC)cc4o3)c2)cc1`
Marked response: M

----------
Test system: NCI/ADR-RES
Assay: Growth inhibition of human NCI/ADR-RES cells at 10 uM after 48 hrs by SRB assay relative to control
Format: functional
Conditions: read-out: GI
Would you mind labelling by inhibition of growth at 10 µM? At or over 20% is MET, under is NOT MET.

COc1ccccc1NC(=O)c1cccc(-c2cc(=O)c3c(OC)c(OC)c(OC)cc3o2)c1    MET

Exam item: Given Cc1ccc(NC(=O)c2ccc(CN3CCN(C)CC3)cc2)cc1Nc1nccc(-c2cccnc2)n1 [IMATINIB] , state whether its inhibition of growth at 10 µM is at least 20%.
Marked response: NOT MET

Exam item: Given `COc1cc2oc(-c3cccc(C(=O)Nc4ccc5c(c4)OCO5)c3)cc(=O)c2c(OC)c1OC` , state whether its inhibition of growth at 10 µM is at least 20%.
Marked response: MET

Exam item: Given `COc1cc2oc(-c3cccc(NC(=O)c4ccc5c(c4)OCO5)c3)cc(=O)c2c(OC)c1OC` , state whether its inhibition of growth at 10 µM is at least 20%.
Marked response: MET

Exam item: Given `COc1ccc(C(=O)Nc2cccc(-c3cc(=O)c4c(O)c(OC)c(OC)cc4o3)c2)cc1` , state whether its inhibition of growth at 10 µM is at least 20%.
Marked response: NOT MET

Exam item: Given `COc1cc(NC(=O)c2cccc(-c3cc(=O)c4c(OC)c(OC)c(OC)cc4o3)c2)cc(OC)c1OC` , state whether its inhibition of growth at 10 µM is at least 20%.
Marked response: MET

Exam item: Given `COc1cc2oc(-c3cccc(C(=O)Nc4ccccc4)c3)cc(=O)c2c(OC)c1OC` , state whether its inhibition of growth at 10 µM is at least 20%.
Marked response: NOT MET

Exam item: Given `COc1cc2oc(-c3cccc(C(=O)Nc4ccccc4)c3)cc(=O)c2c(O)c1OC` , state whether its inhibition of growth at 10 µM is at least 20%.
Marked response: MET

----------
Please respond with reported inhibition of growth at 10 µM for every item in the list.
Test system: HL-60(TB)
Test: Growth inhibition of human HL-60(TB) cells at 10 uM after 48 hrs by SRB assay relative to control
Assay type: functional
Settings: HL-60, 48 h, read-out: GI
Numbers only, in %.

Examples with answers:
COc1cccc(NC(=O)c2cccc(-c3cc(=O)c4c(OC)c(OC)c(OC)cc4o3)c2)c1    31.3
COc1cc2oc(-c3cccc(C(=O)Nc4ccc5c(c4)OCO5)c3)cc(=O)c2c(O)c1OC    5.71
COc1ccc(NC(=O)c2cccc(-c3cc(=O)c4c(O)c(OC)c(OC)cc4o3)c2)cc1    -29.7

Now turn to the next molecule.
get_value(item= `COc1cc(NC(=O)c2cccc(-c3cc(=O)c4c(OC)c(OC)c(OC)cc4o3)c2)cc(OC)c1OC` , readout=inhibition of growth at 10 µM) returns 64
